Examples of compounds with documented Fold increase h-GABA-A α2β2γ1 oocyte @ 30-fold Ki follow.
TARGET_OR_TEST_SYSTEM: h-GABAA α2β2γ1 (Homo sapiens, UniProt P47869+Q8N1C3)
Sequence (P47869 29-451): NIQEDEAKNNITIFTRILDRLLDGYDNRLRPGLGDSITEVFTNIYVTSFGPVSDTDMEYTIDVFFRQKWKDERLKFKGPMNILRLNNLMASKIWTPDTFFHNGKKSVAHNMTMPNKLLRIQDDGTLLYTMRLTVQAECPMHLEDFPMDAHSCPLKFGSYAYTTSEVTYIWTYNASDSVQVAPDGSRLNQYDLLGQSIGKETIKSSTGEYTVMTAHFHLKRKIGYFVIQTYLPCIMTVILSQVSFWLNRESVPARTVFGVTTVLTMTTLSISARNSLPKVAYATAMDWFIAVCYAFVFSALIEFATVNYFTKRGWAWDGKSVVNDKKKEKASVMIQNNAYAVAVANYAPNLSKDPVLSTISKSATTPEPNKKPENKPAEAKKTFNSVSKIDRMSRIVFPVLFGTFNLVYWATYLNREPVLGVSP
Sequence (P47870 25-512 partner limits assumed): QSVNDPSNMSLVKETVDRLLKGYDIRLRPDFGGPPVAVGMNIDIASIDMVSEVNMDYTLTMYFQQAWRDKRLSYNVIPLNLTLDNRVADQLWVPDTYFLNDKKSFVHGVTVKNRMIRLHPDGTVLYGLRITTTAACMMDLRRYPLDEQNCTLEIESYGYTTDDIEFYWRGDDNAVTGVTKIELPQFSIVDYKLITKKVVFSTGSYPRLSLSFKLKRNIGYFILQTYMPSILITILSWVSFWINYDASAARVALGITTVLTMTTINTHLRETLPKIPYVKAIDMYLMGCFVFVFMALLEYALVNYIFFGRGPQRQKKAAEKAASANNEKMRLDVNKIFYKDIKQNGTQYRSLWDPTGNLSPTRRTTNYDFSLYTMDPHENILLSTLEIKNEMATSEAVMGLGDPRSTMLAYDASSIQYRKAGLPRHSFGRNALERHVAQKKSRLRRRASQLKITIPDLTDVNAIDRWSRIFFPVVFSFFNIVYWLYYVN
Sequence (Q8N1C3 36-465): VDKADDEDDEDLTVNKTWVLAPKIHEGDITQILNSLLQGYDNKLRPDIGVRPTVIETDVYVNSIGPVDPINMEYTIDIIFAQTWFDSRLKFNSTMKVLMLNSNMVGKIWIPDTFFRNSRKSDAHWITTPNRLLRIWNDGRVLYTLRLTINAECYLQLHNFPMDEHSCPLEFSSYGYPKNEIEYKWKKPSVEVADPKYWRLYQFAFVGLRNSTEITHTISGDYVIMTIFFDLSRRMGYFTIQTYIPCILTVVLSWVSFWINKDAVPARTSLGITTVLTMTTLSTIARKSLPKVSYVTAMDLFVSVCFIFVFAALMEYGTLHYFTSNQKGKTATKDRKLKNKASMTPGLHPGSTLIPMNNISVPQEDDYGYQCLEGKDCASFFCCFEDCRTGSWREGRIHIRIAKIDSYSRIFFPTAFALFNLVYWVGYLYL
EXPERIMENTAL_DETAILS: Two-electrode voltage clamp electrophysiology in Xenopus oocytes, modulation of GABA EC20 current
Type: cell-based
Design: host or cells: Xenopus laevis oocytes, RNA micro-injection
CONDITIONS: Table 2; compound at approx. 30-fold its Ki α2β2γ1, GABA EC20, Xenopus oocytes
Just the number.

Item under review: Cc1nnc2n1-c1ccc(C3CC3)c(Cl)c1C(c1c(F)cccc1F)=NC2 [Example 6] . Reported Fold increase h-GABA-A α2β2γ1 oocyte @ 30-fold Ki? 2.06

Item under review: Fc1cccnc1C1=NCc2nnc(-c3cccnn3)n2-c2ccc(Cl)c(Cl)c21 [Example 54] . Reported Fold increase h-GABA-A α2β2γ1 oocyte @ 30-fold Ki? 7.02

Item under review: Fc1cccnc1C1=NCc2nncn2-c2ccc(Cl)c(Cl)c21 [Example 60] . Reported Fold increase h-GABA-A α2β2γ1 oocyte @ 30-fold Ki? 2.32

Item under review: Fc1cccnc1C1=NCc2nnc(C3CC3)n2-c2ccc(Br)c(Cl)c21 [Example 77] . Reported Fold increase h-GABA-A α2β2γ1 oocyte @ 30-fold Ki? 1.66
